Values from patent US20080139664A1

# Test system: lysozyme
# experimental.protocol: ESI-MS of lysozyme glycoforms after incubation with D-ribose;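 further: lysozyme incubated with D-ribose, with or without anti-glycation agents, then separated by reversed-phase HPLC and analysed by electrospray mass spectrometry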
# condition.summary: lysozyme + D-ribose − 3H2O (14,401 Da); 37° C., 5 days
Recorded Peak area as % of total area of all glycoforms, 14,401, one value per entry.
reported.property: Peak area as % of total area of all glycoforms, 14,401 (%)

compound	test.value
NCCc1ccc(O)c(O)c1	1.3
Cc1cc(-c2ccc(/N=N/c3c(S(=O)(=O)O)cc4cc(S(=O)(=O)O)cc(N)c4c3O)c(C)c2)ccc1/N=N/c1c(S(=O)(=O)O)cc2cc(S(=O)(=O)O)cc(N)c2c1O	3.0
O=c1oc2c(O)c(O)cc3c(=O)oc4c(O)c(O)cc1c4c23	0.0
O=c1c(O)c(-c2cc(O)c(O)c(O)c2)oc2cc(O)cc(O)c12	0.0
Cc1ncc([N+](=O)[O-])n1CC(O)CCl (stereo not shown)	0.0
O=c1cc(-c2ccccc2O)oc2cc(O)cc(O)c12 [5,7,2′-Trihydroxyflavone]	1.6
CNCC(=O)c1ccc(O)c(O)c1	1.7
O=C1C[C@@H](c2ccc(O)cc2)Oc2cc(O)cc(O)c21	0.0
O=c1c(O)cccc2cc(O)c(O)c(O)c12	0.0
NC[C@H](O)c1ccc(O)c(O)c1 [D-Norepinephrine]	1.9
